# experiment description: solvent given as SMILES
# condition notes: in Cc1ccccc1
Please provide measured absorption maximum for the entries that follow.
Report field: quantity (unit follows the number).

# input compound: `CCCCCCCCCCCCn1cccc1/C=C/c1ccc(/C=C/c2cccn2CCCCCCCCCCCC)cc1` ; wanted: its absorption maximum
398 nm

I have this compound here, `CC(=O)O[B-]1(OC(C)=O)OC(/C=C/c2cccc3ccccc23)=CC(/C=C/c2cccc3ccccc23)=[O+]1` , and I need its recorded absorption maximum.
468 nm

Look at this compound and give its reported absorption maximum. `CC(=O)Nc1ccc(S(=O)(=O)O)c(/N=N/c2c(O)c3ccccc3n(C)c2=O)c1`
437 nm

Consider the compound shown here: `CN(C)c1ccc(C#Cc2ccc(C=O)cc2)cc1` What is its recorded absorption maximum?
381.5 nm

If you can, please state the reported absorption maximum value of `c1ccc(-c2cc(-c3ccc(N4c5ccccc5C(c5ccccc5)(c5ccccc5)c5ccccc54)cn3)nc(-c3ccccc3)n2)cc1` .
378.85 nm

Given the entry `CN(C)c1ccc(C#Cc2ccc3ccc4c(C#Cc5ccc(N(C)C)cc5)ccc5ccc2c3c54)cc1` , report its measured absorption maximum.
433 nm

Can you share its absorption maximum? I mean this compound: `CCN(CC)c1ccc(-c2ccc(-c3nc(N4CCOCC4)c4ccccc4n3)s2)cc1`
405 nm

Request the reported absorption maximum associated with `CCCCCC(=O)Oc1cc2[nH]c(cc2CCOC)c2nc(ccc3[nH]c(cc3CCOC)c3nc1C(CCOC)=C3)C(CCOC)=C2`
646 nm

Recorded absorption maximum of `CON(OC)c1cc2c3cc(-c4c(C)cc(C)cc4C)cc4c5cc(-c6c(C)cc(C)cc6C)cc6c7cc(B(c8c(C)cc(C)cc8C)c8c(C)cc(C)cc8C)cc8c9cc(-c%10c(C)cc(C)cc%10C)cc%10c%11cc(-c%12c(C)cc(C)cc%12C)cc%12c(c1)c2c1c(c43)c(c65)c(c78)c(c9%10)c1c%11%12` , please.
461 nm

Item under review: `CCCC1=Cc2nc1ccc1[nH]c(cc1CCC)c1nc(c(O)cc3[nH]c2cc3CCC)C(CCC)=C1` . Reported absorption maximum?
677 nm

Tell me the measured absorption maximum of `O=Cc1nc2ccc(C#Cc3ccc(N(c4ccc(C#Cc5ccc6nc(C=O)sc6c5)cc4)c4ccc(C#Cc5ccc6nc(C=O)sc6c5)cc4)cc3)cc2s1` , please.
414 nm

Given `COc1ccc(-n2c3ccccc3c3cc(/C=C/C(=C(C#N)C#N)c4ccccc4)ccc32)cc1` , state its recorded absorption maximum.
450 nm

Entry `Cc1ccccc1[B-]1(c2ccccc2C)n2nc(C(F)(F)F)cc2-c2c3ccccc3cc[n+]21` has what absorption maximum?
380 nm

Can you share its absorption maximum? I mean this compound: `Cc1cc(-n2c3ccccc3c3ccccc32)ccc1-c1ccc(S(=O)(=O)c2ccccc2)cc1C`
340 nm

So what does the record say about absorption maximum for `CC(C)(C)c1cc2c(c(C(C)(C)C)c1)O[B-](F)(F)[n+]1c-2nc(-c2ccccc2)c2cc(Cl)ccc21` ?
420 nm

Any idea what its absorption maximum is? The compound is `Fc1c(-n2c3ccccc3c3ccccc32)c(F)c(-n2c3ccccc3c3ccccc32)c(-c2nnc(-c3ccccc3)o2)c1-n1c2ccccc2c2ccccc21`
345 nm

Requested read-out: absorption maximum. Entry: `CCc1c(C)[nH]c(C2=[N+]3C(=Cc4c(C)cc(C)n4[B-]3(F)F)c3ccccc32)c1C`
623 nm

----------
# experiment description: solvent given as SMILES
# condition notes: in CN(C)C=O
quantity measured: absorption maximum (nm)
Express the result in nm but write the number alone.

Which absorption maximum value is on record for `CN1c2ccc(C(=O)c3ccccc3)cc2Sc2cc(C(=O)c3ccccc3)ccc21` ?
407

Requested read-out: absorption maximum. Entry: `N#CC(C#N)=C(/C=C/c1cn(-c2ccccc2)nc1-c1ccccc1)c1ccccc1`
405

What value of measured absorption maximum is listed for `COC(=O)c1cc(=O)n(C)c2cc(-c3ccc(OC)cc3)sc12` ?
402

Given `CSc1sc(C(N)=O)c2nnn(C)c(=O)c12` , state its recorded absorption maximum.
396.5

Record request: absorption maximum value, item `Cc1cc(C)c(C2=C3C=C(/C=C/C(=O)OC(C)(C)C)C=[N+]3[B-](F)(F)n3c2ccc3N2CCOCC2)c(C)c1`
485

# get_value(readout='absorption maximum', item= NS(=O)(=O)c1ccc(N2N=C(c3ccc(O)cc3)CC2c2ccc([N+](=O)[O-])cc2)cc1 (configuration not stated) )
355

Which absorption maximum value belongs to `Cc1ccc2[nH]c(-c3ccc(-c4ccc(-c5ccc(-c6nc7cc(C)ccc7[nH]6)cc5)c(C)c4)cc3)nc2c1` ?
333

State the recorded absorption maximum for this entry: `CN(C)c1ccc2nc3c(cc2c1)c(-c1ccccc1)nn3-c1ccccc1`
452.69

Consider the compound `CCCCCCCCCCCCCCCCCCN1C(=O)c2cccc3c(OCCN(C)C)ccc(c23)C1=O` and give its measured absorption maximum.
364

Consider the compound `c1cc(N2CCCC2)ccn1` and give its measured absorption maximum.
284

# lookup: absorption maximum of `CCN1c2ccccc2Sc2cc(/C=C(\C#N)c3ccccc3)ccc21`
414

Item under review: `CCC/N=C/c1cc2ccc(N(C)C)cc2cc1OC` . Reported absorption maximum?
374

Request the reported absorption maximum associated with `CCC1=C(C)C2=C(c3cc(C4=C5C(C)=C(CC)C(C)=[N+]5[B-](F)(F)n5c(C)c(CC)c(C)c54)cc(C4=C5C(C)=C(CC)C(C)=[N+]5[B-](F)(F)n5c(C)c(CC)c(C)c54)c3)c3c(C)c(CC)c(C)n3[B-](F)(F)[N+]2=C1C`
539

Any idea what absorption maximum was measured for `CCn1c2ccccc2c2cc(/C=C3\C(=O)c4ccccc4S3(=O)=O)ccc21` ?
449

Entry `CCC1(CC)c2cc(B(c3c(C)cc(C)cc3C)c3c(C)cc(C)cc3C)ccc2-c2ccc(N(c3ccccc3)c3ccccc3)cc21` has what absorption maximum?
396

For `CCn1c2cc(C(C)(C)C)ccc2c2c3nsnc3c3c4ccc(C(C)(C)C)cc4n(CC)c3c21` , what is its reported absorption maximum?
430

Any idea what absorption maximum was measured for `C#CCNC1=C2C=CC=[N+]2[B-](F)(F)n2cccc21` ?
404

Which measured absorption maximum value corresponds to `Cc1ccc(/C=N/c2cc(C(C)C)c(O)cc2C)cc1` ?
347

What does the record list as absorption maximum for `O=C1/C(=C/C=C/c2cc3c4c(c2)CCCN4CCC3)CC/C1=C\C=C\c1cc2c3c(c1)CCCN3CCC2` ?
532

Look up absorption maximum: `CCCCCCCN1C(=CC2=C([O-])C(=Cc3sc4ccccc4[n+]3CCCCCCC)C2=C(C#N)C#N)Sc2ccccc21`
696

Consider the compound shown here: `CCCCCCCCCCCCCCCC[n+]1ccc(/C=C/c2ccc(N(C)C)cc2)cc1` What is its recorded absorption maximum?
475.3

Dear colleague, I am looking for the recorded absorption maximum of the following compound: `COc1ccc2c(=O)c3c([nH]c2c1)-c1cc(Cl)ccc1NC3(C)C`
425

Request the reported absorption maximum associated with `COc1cc(N(c2ccccc2)c2ccc(C=C(C#N)C#N)c(OC)c2)ccc1C=C(C#N)C#N`
469

Give its absorption maximum value. Item: `Cc1cc2ccc(-c3cccc4cccc(-c5ccc6cc(C)c(=O)oc6c5)c34)cc2oc1=O`
326

Quick check: absorption maximum of c1ccc(CO[Si]23n4c5c6ccccc6c4/N=C4N=C(/N=c6/c7ccccc7c(n62)=c2c6ccccc6c(n23)=N5)c2ccccc2\4)cc1 (configuration not stated) ?
658

Name the recorded absorption maximum for `CCN(CC)c1ccc(/C=C2\CC/C(=C\c3ccc(N(c4ccccc4)c4ccccc4)cc3)C2=C(C#N)C#N)cc1` .
579

Please report the recorded absorption maximum for `COc1ccc(/C=C/C(=O)c2ccccc2O)cc1OC` .
362

----------
# experiment description: solvent given as SMILES
# condition notes: in Cc1ccccc1
Provide the recorded absorption maximum for the entries that follow.
Please reply with the bare figure in nm and do not write the unit itself.

Please report the recorded absorption maximum for `COCCC1=Cc2nc1ccc1[nH]c(cc1CCOC)c1nc(ccc3[nH]c2cc3CCOC)C(CCOC)=C1` .
638

Fill blank: measured absorption maximum of the compound `COc1ccc(-c2nnc(-c3cc(-c4nnc(-c5ccc(OC)cc5)o4)c(-n4c5ccccc5c5ccccc54)cc3-n3c4ccccc4c4ccccc43)o2)cc1` is ____.
371

Return reported absorption maximum; argument: `c1cc(-n2c3ccccc3c3ccccc32)c(-c2nc3ccccn3n2)c(-n2c3ccccc3c3ccccc32)c1`
338

Looking for the measured absorption maximum of `O=C(/C=C(\O)c1ccc(N2c3ccccc3Oc3ccccc32)cc1)c1ccc(N2c3ccccc3Oc3ccccc32)cc1` , can you help?
441

May I ask what absorption maximum has been recorded for `CCCCCCC(CCCCCC)N1C(=O)c2cccc3c(-c4ccc(N(C)C)cc4)ccc(c23)C1=O` ?
418.2

Item `c1ccc(-c2nnc(-c3cc(-c4nnc(-c5ccccc5)o4)c(-n4c5ccccc5c5ccccc54)cc3-n3c4ccccc4c4ccccc43)o2)cc1` has what recorded absorption maximum?
370

Requested field: absorption maximum. Item: `CC1(C)OB(c2ccc3ccc4cccc5ccc2c3c45)OC1(C)C`
378

Consider the compound shown here: `COc1cc(C2=C(c3ccc(C(C)(C)C)cc3)C(c3ccc(C(C)(C)C)cc3)=[N+]3C2=Nc2c(-c4cc(OC)c(OC)c(OC)c4)c(-c4ccc(C(C)(C)C)cc4)c(-c4ccc(C(C)(C)C)cc4)n2[B-]3(F)F)cc(OC)c1OC` What is its recorded absorption maximum?
675

Fill blank: measured absorption maximum of the compound `O=Cc1ccc2ccc3cccc4ccc1c2c34` is ____.
391
